Listed next: entries and their corresponding pKd.
measured_on: GDP-bound KRAS wild-type protein (Homo sapiens, UniProt P01116)
Sequence (P01116 whole entry): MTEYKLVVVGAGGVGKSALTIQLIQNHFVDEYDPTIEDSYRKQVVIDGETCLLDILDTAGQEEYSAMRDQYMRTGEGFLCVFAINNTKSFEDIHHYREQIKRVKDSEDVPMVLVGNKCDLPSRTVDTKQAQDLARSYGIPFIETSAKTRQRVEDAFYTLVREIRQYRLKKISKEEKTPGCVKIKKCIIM
experiment_summary: Binding to KRAS by surface plasmon resonance (SPR), Single Cycle Kinetics
measurement_parameters: SPR Single Cycle Kinetics, GDP-bound KRAS wild-type protein, 1:1 binding model; read-out: KRAS KD
Where a SMILES comes first, the peptide text is derived from it. Bridges are numbered along the chain shown (N, C = ends). [ ]: non-standard residue; d: D form. The star is where a group is joined. hPhe(3,5-F2-4-CF3) = N[C@@H](CCc1cc(F)c(C(F)(F)F)c(F)c1)C(=O)O; hPhe(3-Cl-4-CF3) = N[C@@H](CCc1ccc(C(F)(F)F)c(Cl)c1)C(=O)O; NPrPhe(4-CF3) = CCCN[C@@H](Cc1ccc(C(F)(F)F)cc1)C(=O)O; NMeGly(cPent) = CN[C@H](C(=O)O)C1CCCC1; Pro(4,4-F2) = O=C(O)[C@@H]1CC(F)(F)CN1; αMeI = CC[C@H](C)[C@](C)(N)C(=O)O; NMeD = CN[C@@H](CC(=O)O)C(=O)O; NMeL = CN[C@@H](CC(C)C)C(=O)O; Morpholide = C1CN(*)CCO1; NMeA = CN[C@@H](C)C(=O)O; Ac5c = NC1(C(=O)O)CCCC1; Aze = O=C(O)[C@@H]1CCN1; Sar = CNCC(=O)O
By convention, pKd is the negative base-10 log of a molar concentration.

# annotated cases, reported pKd shown
CCO[C@@H]1C[C@H]2C(=O)NC3(CC(C)(C)C3)C(=O)N(C)[C@@H](C3CCCCC3)C(=O)N(C)[C@H](C(=O)N(C)C)CC(=O)N(C)[C@@H](COC)C(=O)N[C@@H]([C@@H](C)CC)C(=O)N(C3CC3)CC(=O)N(C)[C@H]3C/C=C\CCN(C3=O)[C@@H](Cc3ccc(C(F)(F)F)cc3)C(=O)N(C)CC(=O)N[C@@H](CCc3cc(F)c(C(F)(F)F)c(F)c3)C(=O)N2C1: 9.36
CCCN1C(=O)[C@@H]2CCN2C(=O)[C@H](C)N(C)C(=O)[C@H]([C@@H](C)CC)NC(=O)[C@H](CC(C)C)N(C)C(=O)C[C@@H](C(=O)N2CCOCC2)N(C)C(=O)[C@H](C2CCCC2)N(C)C(=O)C2(CCCC2)NC(=O)[C@@H]2C[C@@H](O)CN2C(=O)[C@H](CCc2ccc(C(F)(F)F)c(Cl)c2)NC(=O)CN(C)C(=O)[C@@H]1Cc1ccc(C(F)(F)F)cc1: 10.30
CCO[C@@H]1C[C@H]2C(=O)NC3(CCC(F)(F)CC3)C(=O)N(C)[C@@H](C3CCCC3)C(=O)N(C)[C@H](C(=O)N3CCOCC3)CC(=O)N(C)[C@@H](CC(C)C)C(=O)N[C@@H]([C@@H](C)CC)C(=O)N(C)CC(=O)N(C)[C@H]3CCCCCN(C3=O)[C@@H](Cc3ccc(C(F)(F)F)cc3)C(=O)N(C)CC(=O)N[C@@H](CCc3cc(F)c(C(F)(F)F)c(F)c3)C(=O)N2C1: 7.96
CCCN1C(=O)[C@@H]2CCN2C(=O)[C@H](C)N(C)C(=O)[C@H]([C@@H](C)CC)NC(=O)[C@H](CC(C)C)N(C)C(=O)C[C@@H](C(=O)N(C)C)N(C)C(=O)[C@H](C2CCCC2)N(C)C(=O)C2(CCCC2)NC(=O)[C@@H]2CC(F)(F)CN2C(=O)[C@H](CCc2ccc(C(F)(F)F)c(Cl)c2)NC(=O)CN(C)C(=O)[C@@H]1Cc1ccc(C(F)(F)F)cc1 [PP0436] ([NMeL]I[NMeA][Aze][NPrPhe(4-CF3)][Sar][hPhe(3-Cl-4-CF3)][Pro(4,4-F2)][Ac5c][NMeGly(cPent)][NMeD]-NMe2; lactam N-11): 10.27

// next entry
Problem: # return recorded pKd for input CCCN1C(=O)CN(C)C(=O)[C@@H]2CCN2C(=O)[C@H]([C@@H](C)CC)NC(=O)[C@H](CC(C)C)N(C)C(=O)C[C@@H](C(=O)N2CCOCC2)N(C)C(=O)[C@H](C2CCCC2)N(C)C(=O)[C@](C)([C@@H](C)CC)NC(=O)[C@@H]2CCCN2C(=O)[C@H](CCc2cc(F)c(C(F)(F)F)c(F)c2)NC(=O)CN(C)C(=O)[C@@H]1Cc1ccc(C(F)(F)F)cc1 [PP0774] ([NMeL]I[Aze][Sar][NPrPhe(4-CF3)][Sar][hPhe(3,5-F2-4-CF3)]P[αMeI][NMeGly(cPent)][NMeD]-Morpholide; lactam N-11)
Solution: 7.77
